// reported pIC50 per item
- TESTED TARGET: human LOXL2 (Homo sapiens (Human), UniProt Q9Y4K0)
- Sequence (Q9Y4K0 26-774): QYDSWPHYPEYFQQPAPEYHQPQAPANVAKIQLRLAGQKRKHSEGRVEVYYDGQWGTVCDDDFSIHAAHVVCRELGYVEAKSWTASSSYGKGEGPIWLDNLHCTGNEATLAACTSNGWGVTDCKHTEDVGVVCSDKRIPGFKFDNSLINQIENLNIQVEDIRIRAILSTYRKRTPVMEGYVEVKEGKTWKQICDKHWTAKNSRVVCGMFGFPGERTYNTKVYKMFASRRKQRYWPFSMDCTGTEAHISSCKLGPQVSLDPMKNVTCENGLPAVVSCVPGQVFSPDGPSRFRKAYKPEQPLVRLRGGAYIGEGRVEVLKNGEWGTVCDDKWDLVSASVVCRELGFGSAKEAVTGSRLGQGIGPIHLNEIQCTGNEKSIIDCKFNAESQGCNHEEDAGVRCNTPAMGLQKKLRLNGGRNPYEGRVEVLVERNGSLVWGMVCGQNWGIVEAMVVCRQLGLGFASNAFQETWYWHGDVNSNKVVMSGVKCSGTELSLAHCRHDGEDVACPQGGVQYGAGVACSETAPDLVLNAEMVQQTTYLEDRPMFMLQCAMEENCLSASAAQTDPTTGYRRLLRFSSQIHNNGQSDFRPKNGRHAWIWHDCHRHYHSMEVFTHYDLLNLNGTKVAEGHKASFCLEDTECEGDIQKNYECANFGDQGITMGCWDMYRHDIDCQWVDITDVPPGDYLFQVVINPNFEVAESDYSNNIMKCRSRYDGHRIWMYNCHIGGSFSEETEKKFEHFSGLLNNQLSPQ
pIC50: −log10 of the molar value. Structures can show the parent of a compound that is named as a salt.

Would you please look over these solved cases?
N#CC1CN(C(=O)c2cccc(Oc3cc(CN)cc(C(F)(F)F)n3)c2)C1 [Compound 1-199, trifluoroacetate]; > 6.52
Cl.NCc1cc(Oc2cccc(C(=O)N3C[C@@H](O)[C@H](F)C3)c2)nc(C(F)(F)F)c1 (stereo in doubt) [Compound 1-19, hydrochloride]; > 6.52

stdin: Look at this molecule and give its reported pIC50. NCc1cc(Oc2cccc(C(=O)NC[C@@H](O)CO)c2)nc(C(F)(F)F)c1 [Compound 1-33, hydrochloride]
stdout: > 6.52

stdin: Further, for NCc1cc(Oc2cccc3c2CCC(=O)N3CCO)nc(C(F)(F)F)c1 [Compound 1-60, hydrochloride] ?
stdout: 6.00 to 6.52

stdin: Also, NCc1cc(Oc2cccc(C(=O)NCC3CCC(=O)N3)c2)nc(C(F)(F)F)c1 (racemic) [Compound 1-29, hydrochloride] please.
stdout: > 6.52

stdin: Then what about the molecule NCc1cc(Oc2cccc(C(=O)N[C@@H]3CCC[C@@H]3O)c2)nc(C(F)(F)F)c1 [Compound 1-209, hydrochloride] ?
stdout: > 6.52
